Quick reference for IC50 among some compounds
# protocol-description: Cytotoxicity
# Type: cell-based
# condition: pig, LLC-PK11 kidney epithelial cells

Check out these entries, answers already filled in.
>  <compound>
Oc1ccc(/C=C/c2cc(O)cc(O)c2)cc1 [Compound 24, resveratrol, reference compound]

>  <result>
> 25 µg/mL

$$$$
>  <compound>
CC(C)/C=C/c1c(O)cc(/C=C/c2ccc(O)cc2)cc1O

>  <result>
> 25 µg/mL

$$$$
>  <compound>
CC(C)(O)C(O)Cc1c(O)cc(/C=C/c2ccc(O)cc2)cc1O (stereo not drawn)

>  <result>
> 25 µg/mL

$$$$
>  <compound>
Oc1cc(O)cc(/C=C/c2ccccc2)c1

>  <result>
10.5 µg/mL

$$$$
>  <compound>
CC(C)(O)C(O)Cc1c(O)cc(/C=C/c2ccccc2)cc1O (stereo not drawn)

>  <result>
> 25 µg/mL

$$$$

The recorded IC50 for COc1cccc(CCc2ccc(O)cc2)c1 is > 25 µg/mL

The recorded IC50 for CC(C)=CCc1c(O)cc(/C=C/c2ccc(O)cc2)cc1O is 13.5 µg/mL

The recorded IC50 for CC(C)/C=C/c1c(O)cc(/C=C/c2ccccc2)cc1O is > 25 µg/mL

The recorded IC50 for Oc1cccc(CCc2ccccc2)c1 is > 25 µg/mL

---

Quick reference for IC50 among some compounds
# protocol-description: Cytotoxicity
# Assay type: cell-based
# condition: human, BT-549 breast ductal carcinoma cells

>  <compound>
CC1(C)C=Cc2c(O)cc(/C=C/c3ccc(O)cc3)cc2O1

>  <IC50>
> 25 µg/mL

$$$$
>  <compound>
CC(C)/C=C/c1c(O)cc(/C=C/c2ccc(O)c(O)c2)cc1O

>  <IC50>
4.8 µg/mL

$$$$
>  <compound>
CC(C)=CCC/C(C)=C/Cc1c(O)cc(/C=C/c2ccc(O)cc2O)cc1O

>  <IC50>
20 µg/mL

$$$$
>  <compound>
CC(C)/C=C/c1c(O)cc(/C=C/c2ccccc2)cc1O

>  <IC50>
> 25 µg/mL

$$$$
>  <compound>
COc1cccc2c1C(=O)c1c(O)c3c(c(O)c1C2=O)C[C@@](O)(C(=O)CO)C[C@@H]3O[C@H]1C[C@H](N)[C@H](O)[C@H](C)O1 [Doxorubicin, reference compound]

>  <IC50>
1.35 µg/mL

$$$$
>  <compound>
COc1cccc(CCc2ccc(O)cc2)c1

>  <IC50>
> 25 µg/mL

$$$$
>  <compound>
Oc1cc(O)cc(/C=C/c2ccccc2)c1

>  <IC50>
13 µg/mL

$$$$
>  <compound>
CC(C)=CCc1c(O)cc(/C=C/c2ccccc2)cc1O

>  <IC50>
> 25 µg/mL

$$$$

The recorded IC50 for COc1cc(O)cc(/C=C/c2ccccc2)c1 is > 25 µg/mL

The recorded IC50 for CC(C)(O)C(O)Cc1cc(/C=C/c2cc(O)cc(O)c2)ccc1O (centres unmarked) is > 25 µg/mL

The recorded IC50 for COc1ccc(/C=C/c2cc(O)cc(O[C@@H]3O[C@H](CO)[C@@H](O)[C@H](O)[C@H]3O)c2)cc1O [Compound 23, rhapontin, reference compound] is > 25 µg/mL

The recorded IC50 for CC(C)/C=C/c1c(O)cc(/C=C/c2ccc(O)cc2)cc1O is > 25 µg/mL

The recorded IC50 for COc1cc(/C=C/c2ccc(O)cc2)cc(OC)c1 is > 25 µg/mL

The recorded IC50 for CC(C)(O)C(O)Cc1c(O)cc(/C=C/c2ccc(O)cc2)cc1O (centres unmarked) is > 25 µg/mL
